Just for reference, ChEMBL document CHEMBL3616378 is where these values come from.

# target_desc: UniProtKB Q14832
# assay: Antagonist activity at human recombinant mGlu3 receptor expressed in AV12 cells assessed as reversal of DCG-4-inhibited, forskolin-stimulated cAMP production after 1 hr by fluorescence assay
# Type: functional, cell-based
test_readout: IC50 (nM)

// solved cases for IC50 follow
If you can, please state the reported IC50 value of N[C@@]1(C(=O)O)C[C@@H](Sc2nc[nH]n2)[C@H]2[C@H](C(=O)O)[C@H]21 .
2730

Item under review: N[C@@]1(C(=O)O)C[C@@H](Sc2nnc(C(F)(F)F)[nH]2)[C@H]2[C@H](C(=O)O)[C@H]21 . Reported IC50?
528

Given the entry N[C@@]1(C(=O)O)C[C@@H](Sc2ccccc2)[C@H]2[C@H](C(=O)O)[C@H]21 , report its measured IC50.
1070

A: N[C@@]1(C(=O)O)C[C@@H](Sc2nnc(C(F)F)[nH]2)[C@H]2[C@H](C(=O)O)[C@H]21
B: N[C@@]1(C(=O)O)C[C@H](Sc2nnc[nH]2)[C@H]2[C@H](C(=O)O)[C@H]21
# query: argmin of IC50 over A and B Write down the label of the entry you select.
A
(A: 459 nM, B: 4260 nM)

* * *

# assay: Metabolic stability of the compound in human hepatocytes assessed as loss of compound at 2 uM
# Type: ADME, cell-based, Hepatocyte
# test_parameters: read-out: Drug degradation
test_readout: metabolised at 2 µM

I would be grateful if you could share the reported metabolised at 2 µM for N[C@@]1(C(=O)O)C[C@@H](Sc2nc[nH]n2)[C@H]2[C@H](C(=O)O)[C@H]21 .
< 10%

* * *

# target_desc: CYP2D6 (Homo sapiens, UniProt P10635)
# Sequence (P10635 whole entry): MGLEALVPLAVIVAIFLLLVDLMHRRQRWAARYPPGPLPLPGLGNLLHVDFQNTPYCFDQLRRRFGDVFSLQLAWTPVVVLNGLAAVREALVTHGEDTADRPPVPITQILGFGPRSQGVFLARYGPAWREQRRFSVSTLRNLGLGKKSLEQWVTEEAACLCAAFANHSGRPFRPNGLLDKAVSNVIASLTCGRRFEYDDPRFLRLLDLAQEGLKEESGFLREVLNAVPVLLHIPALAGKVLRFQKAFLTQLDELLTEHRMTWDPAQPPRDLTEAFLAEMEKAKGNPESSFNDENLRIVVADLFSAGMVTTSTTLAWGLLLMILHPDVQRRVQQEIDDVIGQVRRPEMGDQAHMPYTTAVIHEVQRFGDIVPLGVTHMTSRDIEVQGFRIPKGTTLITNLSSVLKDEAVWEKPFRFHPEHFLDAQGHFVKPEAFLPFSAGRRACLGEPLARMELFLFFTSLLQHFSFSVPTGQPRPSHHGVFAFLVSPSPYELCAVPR
# assay: Inhibition of human CYP2D6 at 10 uM
# Type: ADME
test_readout: inhibition at 10 µM

Could you share which inhibition at 10 µM value was measured for N[C@@]1(C(=O)O)C[C@@H](Sc2nc[nH]n2)[C@H]2[C@H](C(=O)O)[C@H]21 ?
< 10%

* * *

# target_desc: Metabotropic glutamate receptor 7 (Homo sapiens, UniProt Q14831)
# Sequence (Q14831 whole entry): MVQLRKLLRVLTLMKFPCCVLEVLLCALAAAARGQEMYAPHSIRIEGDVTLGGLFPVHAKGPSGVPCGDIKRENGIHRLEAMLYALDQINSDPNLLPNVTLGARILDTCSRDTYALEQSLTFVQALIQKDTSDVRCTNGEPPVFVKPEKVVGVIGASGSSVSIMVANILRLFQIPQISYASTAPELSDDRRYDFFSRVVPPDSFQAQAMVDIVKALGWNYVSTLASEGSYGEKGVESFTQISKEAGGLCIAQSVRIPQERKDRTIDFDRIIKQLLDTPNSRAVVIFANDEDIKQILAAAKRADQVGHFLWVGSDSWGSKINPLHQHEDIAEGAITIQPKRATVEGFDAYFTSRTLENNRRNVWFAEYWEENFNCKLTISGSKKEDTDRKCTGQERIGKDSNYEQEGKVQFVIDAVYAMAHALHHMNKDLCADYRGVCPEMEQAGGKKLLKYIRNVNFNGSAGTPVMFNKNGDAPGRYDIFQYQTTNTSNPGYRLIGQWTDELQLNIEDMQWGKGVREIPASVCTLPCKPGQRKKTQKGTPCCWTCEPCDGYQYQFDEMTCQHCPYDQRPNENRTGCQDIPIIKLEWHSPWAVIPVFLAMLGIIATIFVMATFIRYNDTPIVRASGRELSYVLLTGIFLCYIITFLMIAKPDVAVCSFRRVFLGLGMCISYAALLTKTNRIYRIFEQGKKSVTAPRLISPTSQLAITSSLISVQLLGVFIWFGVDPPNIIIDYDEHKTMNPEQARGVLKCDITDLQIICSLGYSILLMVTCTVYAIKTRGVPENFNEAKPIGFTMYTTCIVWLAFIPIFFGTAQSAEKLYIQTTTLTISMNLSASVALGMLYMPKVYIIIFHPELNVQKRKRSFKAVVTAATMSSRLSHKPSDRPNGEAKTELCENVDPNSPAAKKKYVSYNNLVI
# assay: Agonist activity at human recombinant mGlu7 receptor expressed in AV12 cells assessed as stimulation of Ca2+ mobilization after 1 hr by FLIPR assay
test_readout: EC50

Which EC50 value belongs to N[C@@]1(C(=O)O)C[C@@H](Sc2nc[nH]n2)[C@H]2[C@H](C(=O)O)[C@H]21 ?
> 25 µM

* * *

# assay: Half life in Sprague-Dawley rat at 10 mg/kg, ip
# Assay type: ADME, organism-based
# test_parameters: in vivo
test_readout: half-life (h)
Answer format: numeric, h implied, no suffix.

Please look up its half-life: N[C@@]1(C(=O)O)C[C@@H](Sc2nc[nH]n2)[C@H]2[C@H](C(=O)O)[C@H]21
5.2

* * *

# target_desc: Metabotropic glutamate receptor 3 (Homo sapiens, UniProt Q14832)
# Sequence (Q14832 whole entry): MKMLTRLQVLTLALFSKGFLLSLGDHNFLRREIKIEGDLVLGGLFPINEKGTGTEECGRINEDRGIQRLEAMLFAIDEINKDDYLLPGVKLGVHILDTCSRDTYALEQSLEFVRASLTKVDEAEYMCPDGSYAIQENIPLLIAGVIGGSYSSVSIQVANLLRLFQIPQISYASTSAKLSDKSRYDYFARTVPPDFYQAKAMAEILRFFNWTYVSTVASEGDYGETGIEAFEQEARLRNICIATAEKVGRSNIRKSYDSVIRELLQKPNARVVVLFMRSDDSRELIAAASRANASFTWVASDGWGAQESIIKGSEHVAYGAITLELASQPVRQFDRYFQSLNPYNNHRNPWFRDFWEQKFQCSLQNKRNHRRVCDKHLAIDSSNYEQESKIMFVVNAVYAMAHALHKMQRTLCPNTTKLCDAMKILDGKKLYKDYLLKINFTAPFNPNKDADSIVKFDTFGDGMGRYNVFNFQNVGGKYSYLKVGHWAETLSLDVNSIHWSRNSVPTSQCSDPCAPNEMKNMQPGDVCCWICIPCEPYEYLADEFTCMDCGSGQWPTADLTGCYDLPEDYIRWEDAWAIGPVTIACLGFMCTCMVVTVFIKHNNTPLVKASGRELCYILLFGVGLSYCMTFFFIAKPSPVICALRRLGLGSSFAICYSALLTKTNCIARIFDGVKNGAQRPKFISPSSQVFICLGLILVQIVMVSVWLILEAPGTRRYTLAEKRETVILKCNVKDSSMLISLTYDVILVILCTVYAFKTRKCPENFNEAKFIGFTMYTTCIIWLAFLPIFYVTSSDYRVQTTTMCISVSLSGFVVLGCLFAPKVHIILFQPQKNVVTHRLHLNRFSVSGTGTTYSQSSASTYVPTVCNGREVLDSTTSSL
# assay: Displacement of [3H]-459477 from human recombinant mGlu3 receptor expressed in AV12 cells after 90 mins by liquid scintillation counting
test_readout: Ki (nM)

Fill in: Ki of Nc1nnc(S[C@@H]2C[C@@](N)(C(=O)O)[C@@H]3[C@@H](C(=O)O)[C@@H]32)[nH]1 is ___
58.3

Using the record for N[C@@]1(C(=O)O)C[C@H](Sc2nnc(C(F)F)[nH]2)[C@H]2[C@H](C(=O)O)[C@H]21 , report its Ki.
57.5

What value of Ki has been reported for the following compound? N[C@@]1(C(=O)O)C[C@@H](Sc2ccccc2)[C@H]2[C@H](C(=O)O)[C@H]21
138

For the compound N[C@@]1(C(=O)O)CC[C@H]2[C@H](C(=O)O)[C@H]21 , what Ki is on record?
107

Please give the measured Ki for this compound: CC(C)c1nnc(S[C@@H]2C[C@@](N)(C(=O)O)[C@@H]3[C@@H](C(=O)O)[C@@H]32)[nH]1
157

I: Nc1nnc(S[C@H]2C[C@@](N)(C(=O)O)[C@@H]3[C@@H](C(=O)O)[C@@H]32)[nH]1
II: N[C@@]1(C(=O)O)C[C@@H](Sc2nc[nH]n2)[C@H]2[C@H](C(=O)O)[C@H]21
Could you determine which record has the numerically smaller Ki? Candidates: I and II # respond with the chosen item's label
I
(I: 69 nM, II: 156 nM)

* * *

# assay: Bioavailability in Sprague-Dawley rat at 1 mg/kg, ip
# Format: ADME, organism-based
# test_parameters: in vivo
test_readout: bioavailability (%)
The answer is to be given in %; state only the numeric part.

Requested read-out: bioavailability. Entry: N[C@@]1(C(=O)O)C[C@@H](Sc2nc[nH]n2)[C@H]2[C@H](C(=O)O)[C@H]21
122

* * *

# assay: Cmax in Sprague-Dawley rat at 5 mg/kg, po
# Type: ADME, organism-based
# Set-up: dose 5 mg/kg, route oral
# test_parameters: in vivo
test_readout: Cmax (nM)
Response body: numeric value in nM, unit text excluded.

Which measured Cmax value corresponds to N[C@@]1(C(=O)O)C[C@@H](Sc2nc[nH]n2)[C@H]2[C@H](C(=O)O)[C@H]21 ?
220

* * *

# target_desc: Metabotropic glutamate receptor 2 (Homo sapiens)
# assay: Antagonist activity at human recombinant mGlu2 receptor expressed in AV12 cells assessed as inhibition of glutamate-stimulated Ca2+ mobilization after 1 hr by FLIPR assay
# Type: functional, cell-based
pIC50: −log10 of the molar value.
This listing pairs compounds with measured pIC50.

Provide value of pIC50 for this record tested with Metabotropic glutamate receptor 2 (Homo sapiens): N[C@@]1(C(=O)O)C[C@H](Sc2ccccc2)[C@H]2[C@H](C(=O)O)[C@H]21
< 4.90

Turning now to a further compound:
Query the reported pIC50 for Metabotropic glutamate receptor 2 (Homo sapiens); item: N[C@@]1(C(=O)O)C[C@@H](Sc2ccccc2)[C@H]2[C@H](C(=O)O)[C@H]21
< 4.90

* * *

# target_desc: Metabotropic glutamate receptor 2 (Homo sapiens, UniProt Q14416, L300Q)
# Sequence (Q14416 19-872 L300Q limits assumed): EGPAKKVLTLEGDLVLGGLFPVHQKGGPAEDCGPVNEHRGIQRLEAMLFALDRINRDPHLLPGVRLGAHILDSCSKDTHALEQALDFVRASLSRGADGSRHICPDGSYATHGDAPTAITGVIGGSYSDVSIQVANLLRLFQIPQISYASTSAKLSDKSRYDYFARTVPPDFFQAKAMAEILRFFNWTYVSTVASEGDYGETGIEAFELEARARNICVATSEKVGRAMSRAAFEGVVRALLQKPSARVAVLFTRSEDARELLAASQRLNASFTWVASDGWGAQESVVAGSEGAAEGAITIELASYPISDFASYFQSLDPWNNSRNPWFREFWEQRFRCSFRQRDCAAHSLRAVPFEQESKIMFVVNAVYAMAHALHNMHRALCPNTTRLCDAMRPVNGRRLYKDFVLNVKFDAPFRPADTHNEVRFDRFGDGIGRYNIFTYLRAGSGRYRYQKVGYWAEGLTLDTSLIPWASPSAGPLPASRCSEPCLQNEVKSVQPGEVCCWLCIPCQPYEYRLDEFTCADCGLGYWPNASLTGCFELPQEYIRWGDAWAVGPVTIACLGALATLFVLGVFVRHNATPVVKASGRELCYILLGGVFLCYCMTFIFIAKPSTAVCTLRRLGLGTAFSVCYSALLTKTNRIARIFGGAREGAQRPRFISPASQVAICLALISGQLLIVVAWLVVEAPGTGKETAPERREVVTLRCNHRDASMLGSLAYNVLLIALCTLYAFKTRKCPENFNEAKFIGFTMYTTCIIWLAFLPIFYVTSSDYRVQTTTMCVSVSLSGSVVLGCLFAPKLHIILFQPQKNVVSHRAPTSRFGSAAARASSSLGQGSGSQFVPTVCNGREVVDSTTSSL
# assay: Agonist activity at human recombinant mGlu2 receptor L300Q mutant expressed in AV12 cells assessed as stimulation of Ca2+ mobilization after 1 hr by FLIPR assay
# Assay type: functional, cell-based
test_readout: EC50 (nM)
I only need the number, in nM, no unit after it.

Consider the compound shown here: N[C@@]1(C(=O)O)C[C@@H](Sc2nc[nH]n2)[C@H]2[C@H](C(=O)O)[C@H]21 What is its recorded EC50?
22.1

* * *

# target_desc: Metabotropic glutamate receptor 2 (Homo sapiens, UniProt Q14416, E273D)
# Sequence (Q14416 19-872 E273D limits assumed): as the sequence (Q14416 19-872 L300Q limits assumed) above, with E255D, Q282L counted along it
# assay: Agonist activity at human recombinant mGlu2 receptor E273D mutant expressed in AV12 cells assessed as stimulation of Ca2+ mobilization after 1 hr by FLIPR assay
test_readout: pEC50
Lab note — pEC50 values are minus log10 of concentrations in M.

Consider the molecule shown here: N[C@@]1(C(=O)O)C[C@@H](Sc2nc[nH]n2)[C@H]2[C@H](C(=O)O)[C@H]21 What is its recorded pEC50?
7.33

* * *

# assay: Bioavailability in Sprague-Dawley rat at 10 mg/kg, ip
# Type: ADME, organism-based
# test_parameters: in vivo
test_readout: bioavailability (%)
Give a bare numeral; the unit % is implied.

// returns reported bioavailability for input N[C@@]1(C(=O)O)C[C@@H](Sc2nc[nH]n2)[C@H]2[C@H](C(=O)O)[C@H]21
88

* * *

# assay: Plasma concentration in Sprague-Dawley rat at 10 mg/kg, ip after 4 hrs
# Type: ADME, organism-based
test_readout: concentration at 4 h (µM)
Entry rule: numbers only, all in µM.

What does the data say about its concentration at 4 h? Entry: N[C@@]1(C(=O)O)C[C@@H](Sc2nc[nH]n2)[C@H]2[C@H](C(=O)O)[C@H]21
3.02

* * *

# assay: Drug level in Sprague-Dawley rat cerebrospinal fluid at 3 mg/kg, ip after 0.5 hrs
# Format: ADME, organism-based
# test_parameters: read-out: Drug uptake
test_readout: concentration at 0.5 h (nM)
# output: bare number, implied unit nM

What measured concentration at 0.5 h goes with N[C@@]1(C(=O)O)C[C@@H](Sc2nc[nH]n2)[C@H]2[C@H](C(=O)O)[C@H]21 ?
97.3

* * *

# target_desc: Metabotropic glutamate receptor 2 (Homo sapiens)
# assay: Displacement of [3H]-459477 from human recombinant mGlu2 receptor expressed in AV12 cells after 90 mins by liquid scintillation counting
pKi: −log10 of the molar value.
test_readout: pKi

In the examples that follow, each entry is paired with its recorded pKi.
Could you tell me which pKi is on file for N[C@@]1(C(=O)O)C[C@@H](Sc2ccccc2)[C@H]2[C@H](C(=O)O)[C@H]21 ?
6.38

Which pKi reading was recorded for the compound N[C@@]1(C(=O)O)CC[C@H]2[C@H](C(=O)O)[C@H]21 ?
7.14

Consider the compound shown here: N[C@@]1(C(=O)O)C[C@@H](Sc2c[nH]nn2)[C@H]2[C@H](C(=O)O)[C@H]21 What is its recorded pKi?
6.85

P: N[C@@]1(C(=O)O)C[C@H](Sc2nnc(C(F)F)[nH]2)[C@H]2[C@H](C(=O)O)[C@H]21
Q: CC(C)c1nnc(S[C@@H]2C[C@@](N)(C(=O)O)[C@@H]3[C@@H](C(=O)O)[C@@H]32)[nH]1
R: N[C@@]1(C(=O)O)C[C@H](Sc2nnc[nH]2)[C@H]2[C@H](C(=O)O)[C@H]21
S: Nc1nnc(S[C@H]2C[C@@](N)(C(=O)O)[C@@H]3[C@@H](C(=O)O)[C@@H]32)[nH]1
Could you please order the items by pKi, going from the lowest number to the highest? Answer by writing out the labels in the requested order.
Q, R, S, P
(Q: 6.58, R: 7.22, S: 7.56, P: 7.87)
